system: SF-295; test: NCI tumour cell line growth inhibition, 48 h
Calls of active or inactive are those of the source. Cut-off read from the data, not from the text of the source: active = GI50 up to about 1.1 µM and inactive = higher.
The entries below are paired with their reported GI50.

Request the reported GI50 associated with O=C1C(NCCc2ccc(O)c([N+](=O)[O-])c2)=CC(=O)c2[nH]cnc21
10.5 µM (inactive)

Continuing:
Request the reported GI50 associated with O/N=C1\CCCCC1C(NO)c1ccccc1 (centres undefined)
> 100 µM (inactive)

Request the reported GI50 associated with CCN1CC2=C(NC(=S)NC2c2cc(OC)c(OC)c(OC)c2)/C(=C/c2cc(OC)c(OC)c(OC)c2)C1 (centres undefined)
53 µM (inactive)

----------
test system: 786-0; assay: NCI tumour cell line growth inhibition, 48 h
Active and inactive are the calls of the source. Cut-off read from the data, not from the text of the source: active = GI50 up to about 1.1 µM and inactive = higher.
measureName: GI50

Guide cases for GI50, answers given:
Request the reported GI50 associated with CCCCN1C(=O)CS/C1=N/Nc1nc2c([nH]1)c(=O)n(C)c(=O)n2C
17.3 µM (inactive)

Request the reported GI50 associated with COc1ccc(/N=N\c2c(N)nn3c(SC)c(C#N)c(N)nc23)cc1
3.67 µM (inactive)

Request the reported GI50 associated with CCOC(=O)OC1C(Br)C2CCC1(C)C2(C)C (stereo not given)
14.1 µM (inactive)

Request the reported GI50 associated with Clc1ccc(-c2nnc3c4nnc(-c5ccc(Cl)cc5Cl)n4c4ccccc4n23)c(Cl)c1
82.4 µM (inactive)

Continuing:
Request the reported GI50 associated with OC12COc3ccccc3C1Oc1ccccc1C2 (stereo not given)
> 100 µM (inactive)

Request the reported GI50 associated with CC(C)=CCC/C(C)=C/Cc1c(O)c(C)cc2c1[nH]c1cc(O)ccc12
> 25 µM (inactive)

Request the reported GI50 associated with CCOC(=O)C(Cc1c(C=O)[nH]c2ccccc12)(NC(=O)c1ccccc1)C(=O)OCC
16.7 µM (inactive)

Request the reported GI50 associated with N#Cc1nc(C2=C(Cl)c3ccccc3OC2)[nH]c1C#N
32.1 µM (inactive)

Request the reported GI50 associated with COC(=O)[C@H](Cc1ccccc1)NC(=O)N(CCC#N)CCCCN(CCC#N)C(=O)N[C@@H](Cc1ccccc1)C(=O)OC
> 100 µM (inactive)

Request the reported GI50 associated with CC1(C)CC2=C(Sc3ccccc3N2)C(=O)C1C(=O)C(=O)Nc1cccc([N+](=O)[O-])c1 (stereo not given)
> 100 µM (inactive)

----------
tested on: EKVX; test: NCI tumour cell line growth inhibition, 48 h
Calls of active or inactive are those of the source. No stated cut-off is given here; in the data, active = GI50 up to about 1.1 µM and inactive = higher.
// classify into T = active, F = inactive

In this assay, the call recorded for Cc1ccc2c(c1)C(=O)C1(C2)Cc2cccc(C)c2C1=O (stereo not given) was what?
F

In this assay, the call recorded for Cc1cc(=O)[nH]c2c1C(=O)c1c(C)cc(=O)n(C)c1C2=O was what?
T

In this assay, the call recorded for CSC1=NS(=O)(=O)c2cc(C(=O)NN(C)C(=O)c3cc4c(cc3Cl)SC(SC)=NS4(=O)=O)c(Cl)cc2S1 was what?
F

In this assay, the call recorded for CCn1cc(C(=O)O)c(=O)c2cc(F)c(N3CCN(CN4C(=O)/C(=N\NC(=O)c5ccncc5)c5cc(Cl)ccc54)CC3)cc21 was what?
F

Then there is this compound:
In this assay, the call recorded for C[C@@H]1CC[C@@]2(OC1)O[C@H]1C[C@H]3[C@@H]4CC[C@H]5C[C@@H](OC6OC(CO)C(OC7OC(CO)C(O)C(OC8OCC(O)C(O)C8O)C7OC7OC(CO)C(O)C(O)C7O)C(O)C6O)[C@H](O)C[C@]5(C)[C@H]4CC[C@]3(C)[C@H]1[C@@H]2C (stereo not given in full) was what?
F

----------
test system: SF-295; test: NCI tumour cell line growth inhibition, 48 h
Active and inactive are the calls of the source. Cut-off read from the data, not from the text of the source: active = GI50 up to about 1.1 µM and inactive = higher.
// classify into 1 = active, 0 = inactive

Use the examples below as a reference point.
In this assay, the call recorded for CCN(CC)C(=S)SS(=O)(=O)c1cccc(N)c1 was what?
0

In this assay, the call recorded for CSc1cc(Cl)c(C)cc1S(=O)(=O)NC(=O)Nc1ccc(Cl)cc1 was what?
0

In this assay, the call recorded for CC1=C(c2ccccc2)NC(=S)C(C)C(c2ccccc2)=N1 (configuration not stated) was what?
0

Continuing:
In this assay, the call recorded for COc1cc(/C=C(\C#N)c2ccccc2)cc(OC)c1 was what?
0

In this assay, the call recorded for CC(=O)Oc1ccc(N2C(=O)C3c4[nH]c5ccccc5c4C4CCC(C(C)(C)C)CC4C3C2=O)cc1 (configuration not stated) was what?
0

----------
The entries below are paired with their reported GI50.
test system: OVCAR-3; experiment: NCI tumour cell line growth inhibition, 48 h
Activity calls are given as the source filed them. Rule as the data show it: active = GI50 up to about 1.1 µM and inactive = higher. Peptide text beside a SMILES is read from it. * marks the point of attachment. Trt = c1ccc(C(c2ccccc2)(c2ccccc2)*)cc1; Cbz = O=C(OCc1ccccc1)*

Guide cases for GI50, answers given:
Request the reported GI50 associated with Cc1ccsc1/C=N/Nc1nncc2ccccc12
> 100 µM (inactive)

Request the reported GI50 associated with Cc1cc2c(cc1C)[n+]([O-])c(C(=O)C/C(=N/NC(=O)c1ccccc1O)C(=O)Nc1ccccc1C(C)C)c(C)[n+]2[O-]
37.2 µM (inactive)

Request the reported GI50 associated with CSc1cccc(NC(=O)OC2CCCCCCCCCCC2)c1
10.5 µM (inactive)

Request the reported GI50 associated with COC(=O)C1=Cc2cc3c(cc2[C@H](c2ccc4c(c2)OCO4)C1C(=O)OC)OCO3 (stereo partly drawn)
44.9 µM (inactive)

Request the reported GI50 associated with COC(=O)C(CO)NC(=O)C(CSC(c1ccccc1)(c1ccccc1)c1ccccc1)NC(=O)OCc1ccccc1 (stereo not drawn) (Cbz-Cys(Trt)-Ser-OMe; configuration not given here)
13.6 µM (inactive)

Continuing:
Request the reported GI50 associated with CCCCCCCCC/C=C1/CC(CO)(COC(=O)CC(C(C)C)C(C)C)OC1=O (stereo not drawn)
13.9 µM (inactive)

Request the reported GI50 associated with Clc1ccc(-c2nnc3c4nnc(-c5ccc(Cl)cc5Cl)n4c4ccccc4n23)c(Cl)c1
> 100 µM (inactive)

Request the reported GI50 associated with Cc1nc(=O)c2cc(CN(C)c3ccc(C(=O)N[C@@H](CCC(=O)O)C(=O)O)s3)ccc2[nH]1
> 100 µM (inactive)

----------
test system: HT-29; assay: NCI tumour cell line growth inhibition, 48 h
Calls of active or inactive are those of the source. No stated cut-off is given here; in the data, active = GI50 up to about 1.1 µM and inactive = higher.
// classify into active, inactive

Use the examples below as a reference point.
In this assay, the call recorded for CCCNC(=O)c1cc(OC)c(OC)cc1NC(=O)C12CC3CC(CC(C3)C1)C2 was what?
inactive

In this assay, the call recorded for C=CCCCC1SC2=C(CC)CCCN2C1=O (stereo not drawn) was what?
inactive

In this assay, the call recorded for CN(C)CCn1c(=O)c2ccc3c4c(nn3CCN(C)C)c3cc(N)ccc3n(c1=O)c24 was what?
active

In this assay, the call recorded for COC1CC(OC2C(C)OC(OC3C(C)OC(OC4C(O)CC(O[C@H]5CC[C@@]6(C)C(=CC[C@]7(O)[C@@H]6C[C@@H](OC(=O)/C=C/c6ccccc6)[C@@]6(C)[C@]7(O)CC[C@@]6(O)C(C)=O)C5)OC4C)CC3OC)CC2OC)OC(C)C1O (stereo partly drawn) was what?
inactive

In this assay, the call recorded for CN(C)c1cccc2c1C(=O)C=CC21c2ccc(N(C)C)c3c(N(C)C)ccc(c23)C(c2ccccc2)C1c1ccccc1 (stereo not drawn) was what?
inactive

In this assay, the call recorded for CCOC(=O)c1c(N)n(-c2ccccc2)c(=S)n(-c2ccccc2)c1=O was what?
inactive

In this assay, the call recorded for CNC(=O)OC(COC)CN1CCN(c2ccccc2C)CC1 (stereo not drawn) was what?
inactive

In this assay, the call recorded for O=C(Nc1nc(C23CC4CC(CC(C4)C2)C3)cs1)c1cc2ccccc2oc1=O was what?
inactive

In this assay, the call recorded for Cc1ccc(S(=O)(=O)NCC2CCCCC2=O)cc1 (stereo not drawn) was what?
inactive

In this assay, the call recorded for CCN(CC)CCC(=O)c1ccc(Oc2ccc(Cl)cc2)cc1 was what?
inactive

Continuing:
In this assay, the call recorded for COc1cc([C@@H]2c3cc4c(cc3[C@@H](NC(=O)c3ccc(C(C)=O)cc3)C3COC(=O)[C@@H]32)OCO4)cc(OC)c1O (stereo partly drawn) was what?
inactive

In this assay, the call recorded for CCOc1cc(NC(C)=O)ccc1C(=O)NN1C(=O)/C(=C/c2cc(OC)c(OC)c(OC)c2)N=C1c1ccccc1 was what?
inactive

In this assay, the call recorded for CC(C)Oc1c(O)c2c3c(oc(=O)n3C=CC2c2ccccc2)c1OC(C)C (stereo not drawn) was what?
inactive

In this assay, the call recorded for O=C1C(c2ccc([N+](=O)[O-])cc2)=C(Cl)C(=O)c2c(O)cccc21 was what?
inactive

In this assay, the call recorded for O=C(C/C(=N\NC(=O)C[n+]1ccccc1)C(=O)Nc1nc2ccc([N+](=O)[O-])cc2s1)CC(c1ccccc1)c1c(O)c2ccccc2oc1=O (stereo not drawn) was what?
inactive

In this assay, the call recorded for COc1ccc2c(-c3csc(-c4c[nH]c5ccc(Br)cc45)n3)c[nH]c2c1 was what?
inactive

In this assay, the call recorded for NCCCCC(NC(=O)C(N)Cc1ccc(O)cn1)C(=O)O (stereo not drawn) was what?
inactive

In this assay, the call recorded for CC(=O)N/C=C/c1cc(O)ccc1O was what?
inactive

Sourced from ChEMBL document CHEMBL1201862
